molecular target: Epidermal growth factor receptor (Homo sapiens, UniProt P00533, L858R); experiment: Inhibition of EGFR L858R mutant
Sequence (P00533 25-1210 L858R limits assumed): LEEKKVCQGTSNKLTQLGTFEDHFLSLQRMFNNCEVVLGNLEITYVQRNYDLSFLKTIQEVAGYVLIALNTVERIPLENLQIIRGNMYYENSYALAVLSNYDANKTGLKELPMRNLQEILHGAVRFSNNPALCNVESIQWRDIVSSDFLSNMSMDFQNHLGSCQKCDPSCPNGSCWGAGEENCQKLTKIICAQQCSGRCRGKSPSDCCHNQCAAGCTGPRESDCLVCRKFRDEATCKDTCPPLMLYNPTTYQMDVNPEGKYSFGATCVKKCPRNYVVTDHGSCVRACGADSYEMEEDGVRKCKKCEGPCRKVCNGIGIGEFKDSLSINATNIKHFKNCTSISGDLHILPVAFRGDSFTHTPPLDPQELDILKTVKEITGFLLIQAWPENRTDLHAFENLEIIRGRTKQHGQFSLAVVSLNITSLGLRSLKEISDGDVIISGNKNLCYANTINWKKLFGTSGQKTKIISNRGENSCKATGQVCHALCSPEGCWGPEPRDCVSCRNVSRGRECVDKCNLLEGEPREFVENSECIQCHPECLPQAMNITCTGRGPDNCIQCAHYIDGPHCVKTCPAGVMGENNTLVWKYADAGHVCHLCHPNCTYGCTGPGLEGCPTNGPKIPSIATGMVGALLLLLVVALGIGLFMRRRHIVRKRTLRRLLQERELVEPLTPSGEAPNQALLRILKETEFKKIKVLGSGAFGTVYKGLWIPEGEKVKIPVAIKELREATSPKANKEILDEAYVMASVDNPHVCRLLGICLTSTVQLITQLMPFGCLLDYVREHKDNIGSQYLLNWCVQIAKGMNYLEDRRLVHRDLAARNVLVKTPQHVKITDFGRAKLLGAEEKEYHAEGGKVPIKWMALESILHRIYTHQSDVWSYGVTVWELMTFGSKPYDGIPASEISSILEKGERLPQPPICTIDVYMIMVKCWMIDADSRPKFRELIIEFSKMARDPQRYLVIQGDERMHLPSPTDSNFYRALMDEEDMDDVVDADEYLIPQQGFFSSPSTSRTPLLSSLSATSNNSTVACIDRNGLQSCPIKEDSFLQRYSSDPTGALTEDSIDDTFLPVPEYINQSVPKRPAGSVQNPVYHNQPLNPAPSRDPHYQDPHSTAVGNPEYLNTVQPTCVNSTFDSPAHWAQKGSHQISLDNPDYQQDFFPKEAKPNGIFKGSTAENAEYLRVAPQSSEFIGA
measurement-name: IC50 (nM)

• O=C(Nc1cccc(Nc2cc(Nc3cccc(C(F)(F)F)c3)ncn2)c1)C1CC1 = 63

----------
assay: Inhibition of Cdk1/cyclin A
pKi: −log10 of the molar value.
measurement-name: pKi

• O=C1N=C(NCc2cccs2)S/C1=C/c1ccc2ncccc2c1 = 6.96

----------
Target or system Serine/threonine-protein kinase 26 (Homo sapiens): recorded ΔTm listed per item.
measurement-name: ΔTm (°C)

* COc1nccc(-c2c(-c3ccc(F)cc3)ncn2[C@H]2CC[C@H](O)CC2)n1 | 2.8
* Cc1nc2sccn2c(=O)c1CCN1CCC(=C(c2ccccc2)c2ccc(F)cc2)CC1 | 0.4
* Oc1ccc(-c2nc(-c3ccc(F)cc3)c(-c3ccncc3)[nH]2)cc1 | -0.4
* Cn1cnc2c(NCc3ccccc3)nc(NCCO)nc21 | 0
* Oc1cc(O)cc(/C=C/c2ccc(O)c(O)c2)c1 | 1
